B1: tRNA (parent)
chain: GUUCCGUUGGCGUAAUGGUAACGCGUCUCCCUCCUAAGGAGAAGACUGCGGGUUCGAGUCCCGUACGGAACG

# Variants of: B1
# RUN_DESCRIPTION: yeast fitness, log relative to wild type (ln ratio); higher = fitter; tRNA-Arg(CCU), competitive growth, 37 C, 1 M NaCl
PROPERTY_MEASURED: yeast fitness (ln)

- ALTERATION: "G1A U2G G6U C46U C71U"
  PROPERTY_MEASURED: "yeast fitness (ln)"
  NUMERIC_RESULT: -0.251
- ALTERATION: "G6A C27U C66A A70U C71U"
  PROPERTY_MEASURED: "yeast fitness (ln)"
  NUMERIC_RESULT: -0.246
- ALTERATION: "U2C G6U A69G A70U"
  PROPERTY_MEASURED: "yeast fitness (ln)"
  NUMERIC_RESULT: -0.117
- ALTERATION: "G1A U2C G6U C27U C46U C66A A69G A70G C71U"
  PROPERTY_MEASURED: "yeast fitness (ln)"
  NUMERIC_RESULT: -0.0613
- ALTERATION: "G6A C46U C66U A70U"
  PROPERTY_MEASURED: "yeast fitness (ln)"
  NUMERIC_RESULT: -0.00103
- ALTERATION: "U2G G6A C66A A69G A70U"
  PROPERTY_MEASURED: "yeast fitness (ln)"
  NUMERIC_RESULT: -0.0595
- ALTERATION: "U2C G6A C66A A70U"
  PROPERTY_MEASURED: "yeast fitness (ln)"
  NUMERIC_RESULT: -0.094
- ALTERATION: "G1A U2C G6U C27U A43C C46U C66U A70U C71U"
  PROPERTY_MEASURED: "yeast fitness (ln)"
  NUMERIC_RESULT: -0.315
- ALTERATION: "G1A U2G G6A C27U C66U A69G A70G C71U"
  PROPERTY_MEASURED: "yeast fitness (ln)"
  NUMERIC_RESULT: -0.402
- ALTERATION: "U2G G6A C27U C46U C66U C71U"
  PROPERTY_MEASURED: "yeast fitness (ln)"
  NUMERIC_RESULT: -0.17
- ALTERATION: "G1A U2G C27U C46U C66A A70G"
  PROPERTY_MEASURED: "yeast fitness (ln)"
  NUMERIC_RESULT: -0.195

Entry source: the RNAGym collection of RNA variant scans (doi:10.1038/s41586-018-0170-7)
